This listing pairs binders with measured MR (Molar Ratio).
# system: T1, recombinant human cardiac troponin T (human, UniProt P45379 2-298)
# T1 construct: In the ECL assay the cTnT came from the Troponin T hs CalSet calibrator; also called cTnT; TnT
# measurement protocol: SPR (Biacore T200, 37 C), Fab captured, cTnT analyte
# Protocol: Detailed kinetic investigations were performed at 37° C. on a GE Healthcare T200 instrument. A Biacore CM-5 series S sensor was mounted into the instrument and was preconditioned according to the manufacturer's instructions. The system buffer was HBS-ET (10 mM HEPES (pH 7.4), 150 mM NaCl, 1 mM EDTA, 0.05% (w/v) Tween® 20). The sample buffer was the system buffer supplemented with 1 mg/ml CMD (Carboxymethyldextran, Fluka). […]

- binder: "anti-cTnT Fab mutant 21 (F60W, V101Y) (Fab, V domains shown, also called combination 21) VH: EVQLQQSGPELVKPGASVKMSCKASGYTFTDYYMKWVKQSHGKSLEWIGDINPNNGETWYNQKFKDKATLTVDKSSSTAYMQLNSLTSEDSAVYYCATRYFDYWGQGTTLTVSS VL: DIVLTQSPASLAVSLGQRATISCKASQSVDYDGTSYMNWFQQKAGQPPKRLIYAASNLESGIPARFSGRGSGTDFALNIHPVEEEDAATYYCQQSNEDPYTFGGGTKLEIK"
  MR (Molar Ratio): 0.5
- binder: "anti-cTnT Fab mutant 13 (Y34I, F60W, V101Y + Y104F) (Fab, V domains shown, also called combination 13) VH: EVQLQQSGPELVKPGASVKMSCKASGYTFTDYIMKWVKQSHGKSLEWIGDINPNNGETWYNQKFKDKATLTVDKSSSTAYMQLNSLTSEDSAVYYCATRYFDFWGQGTTLTVSS VL: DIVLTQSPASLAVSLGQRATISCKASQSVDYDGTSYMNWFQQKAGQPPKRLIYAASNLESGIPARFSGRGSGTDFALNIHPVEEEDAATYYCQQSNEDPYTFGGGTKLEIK"
  MR (Molar Ratio): 0.7
- binder: "anti-cTnT Fab mutant 19 (Y104F) (Fab, V domains shown, also called combination 19) VH: EVQLQQSGPELVKPGASVKMSCKASGYTFTDYYMKWVKQSHGKSLEWIGDINPNNGETFYNQKFKDKATLTVDKSSSTAYMQLNSLTSEDSAVYYCATRVFDFWGQGTTLTVSS VL: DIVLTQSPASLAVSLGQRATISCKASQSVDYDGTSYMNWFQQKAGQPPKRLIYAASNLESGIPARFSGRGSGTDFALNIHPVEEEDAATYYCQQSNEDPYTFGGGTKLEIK"
  MR (Molar Ratio): 0.8
